- Test system: Human immunodeficiency virus 1
- method: Antiviral activity against HIV1 3B in CEM/0 cells assessed as inhibition of virus-induced cytopathogenicity
- Type: functional, organism-based
- conditionDetails: Human immunodeficiency virus 1, 3B, CCRF-CEM
quantityMeasured: EC50 (µM)

Record excerpt, results attached:
Cc1cn([C@H]2C[C@H](SSc3ccc([N+](=O)[O-])cc3)[C@@H](CO)O2)c(=O)[nH]c1=O    8
Cc1cn([C@H]2C[C@H](SSC(Cl)(Cl)Cl)[C@@H](CO)O2)c(=O)[nH]c1=O    20
Cc1cn([C@H]2C[C@H](SSc3ccccc3[N+](=O)[O-])[C@@H](CO)O2)c(=O)[nH]c1=O    10
CSS[C@H]1C[C@H](n2ccc(N)nc2=O)O[C@@H]1CO    10
CSS[C@H]1C[C@H](n2cc(C)c(=O)[nH]c2=O)O[C@@H]1CO    12

a = C=CCSS[C@H]1C[C@H](n2cc(C)c(=O)[nH]c2=O)O[C@@H]1CO
b = CCCCSS[C@H]1C[C@H](n2cc(C)c(=O)[nH]c2=O)O[C@@H]1CO
Ask: Please choose the item with the lower EC50 value from this pair: a and b Field: selected label. Fill in the label of the entry you choose.
Result: b

----------
Entries and their EC50
- Test system: Human immunodeficiency virus 2
- method: Antiviral activity against HIV2 ROD in TK1 deficient human CEM cells assessed as inhibition of virus-induced cytopathogenicity
- Type: functional, organism-based
- conditionDetails: Human immunodeficiency virus 2, ROD, CCRF-CEM

Record excerpt, results attached:
CCCCCCSS[C@H]1C[C@H](n2cc(C)c(=O)[nH]c2=O)O[C@@H]1CO    > 10 µM
Cc1cn([C@H]2C[C@H](SSc3ccc([N+](=O)[O-])cc3)[C@@H](CO)O2)c(=O)[nH]c1=O    ≥ 10 µM
Cc1cn([C@H]2C[C@H](SSC(Cl)(Cl)Cl)[C@@H](CO)O2)c(=O)[nH]c1=O    22.5 µM
CCCCCCCCSS[C@H]1C[C@H](n2cc(C)c(=O)[nH]c2=O)O[C@@H]1CO    > 10 µM
Cc1cn([C@H]2C[C@H](SSCCN)[C@@H](CO)O2)c(=O)[nH]c1=O    150 µM
Cc1cn([C@H]2C[C@H](SSCCCCCCO)[C@@H](CO)O2)c(=O)[nH]c1=O    > 50 µM
CSS[C@H]1C[C@H](n2cc(C)c(=O)[nH]c2=O)O[C@@H]1CO    > 50 µM
Cc1cn([C@H]2C[C@H](SSCCO)[C@@H](CO)O2)c(=O)[nH]c1=O    > 50 µM

Consider now this further compound.
Ask: Please look at this compound and report its EC50: CCCCSS[C@H]1C[C@H](n2cc(C)c(=O)[nH]c2=O)O[C@@H]1CO
Result: > 10 µM

----------
- method: Cytotoxicity against human CEM/0 cells
- Format: cell-based, CCRF-CEM
quantityMeasured: CC50 (µM)
Return type: number; implicit unit µM.

C=CCSS[C@H]1C[C@H](n2cc(C)c(=O)[nH]c2=O)O[C@@H]1CO    53
CSS[C@H]1C[C@H](n2cc(Br)c(=O)[nH]c2=O)O[C@@H]1CO    103
Cc1cn([C@H]2C[C@H](SSc3ccccc3[N+](=O)[O-])[C@@H](CO)O2)c(=O)[nH]c1=O    18.5
Cc1cn([C@H]2C[C@H](SSCCN)[C@@H](CO)O2)c(=O)[nH]c1=O    437

Consider now this further molecule.
Ask: Please look at this molecule and report its CC50: Nc1ccn([C@H]2C[C@H](SS[C@H]3C[C@H](n4ccc(N)nc4=O)O[C@@H]3CO)[C@@H](CO)O2)c(=O)n1
Result: 216
